Kindly find below IC50 information for human mPGES-1 (Homo sapiens) taken from the literature.
property-name: IC50 (nM)

Use these answered entries as a reference point.
compound	IC50 (nM)
Cc1cc(C(=O)NS(=O)(=O)c2ccccc2S(N)(=O)=O)ccc1Br	170
NS(=O)(=O)c1ccccc1S(=O)(=O)NC(=O)C1CC2CCC1C2 (centres unmarked)	9800
NS(=O)(=O)c1ccccc1S(=O)(=O)NC(=O)c1ccc(C#CC2CCCC2)cc1O	19
C[C@]1(C(=O)NS(=O)(=O)c2ccccc2S(N)(=O)=O)CC[C@H](c2cc3ccccc3o2)CC1	7000
COCCn1c(-c2ccccc2)cc2cc(C(=O)NS(=O)(=O)c3ccccc3S(N)(=O)=O)ccc21	300

I. CC(C)Oc1ccc(-n2c(C(=O)O)cc3cc(Oc4ccc(Cl)cc4)ccc32)cc1
II. CC(C)(C)c1cc2cc(C(=O)NS(=O)(=O)c3ccccc3S(N)(=O)=O)ccc2o1
III. CCCc1cccc(-c2nc(O)nc(-c3cc(CNC(=O)C(C)(C)C(F)(F)F)ccc3Cl)n2)c1
Ranking field: IC50; order: falling. // respond by listing labels in the order requested I, II, III
